These measurements were taken from patent US12209087B2.

# MEASURED TARGET: full length AKT E17K (Homo sapiens, UniProt P31749, E17K)
# Construct: host or cells: HEK-293 (ATCC CRL-1573)
# Sequence (P31749 whole entry E17K): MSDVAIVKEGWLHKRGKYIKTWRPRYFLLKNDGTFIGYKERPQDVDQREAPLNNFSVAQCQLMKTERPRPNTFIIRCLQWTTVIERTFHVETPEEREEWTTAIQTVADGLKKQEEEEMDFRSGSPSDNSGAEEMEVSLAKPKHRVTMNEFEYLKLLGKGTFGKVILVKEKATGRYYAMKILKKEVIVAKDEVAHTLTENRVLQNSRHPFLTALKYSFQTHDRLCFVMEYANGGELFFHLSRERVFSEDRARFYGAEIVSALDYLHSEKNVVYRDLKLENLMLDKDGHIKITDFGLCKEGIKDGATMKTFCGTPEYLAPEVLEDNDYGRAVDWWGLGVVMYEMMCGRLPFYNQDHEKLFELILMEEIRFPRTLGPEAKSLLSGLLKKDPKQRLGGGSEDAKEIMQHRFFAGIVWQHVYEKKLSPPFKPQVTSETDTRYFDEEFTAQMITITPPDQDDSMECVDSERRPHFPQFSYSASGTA
# ASSAY NAME: NanoBRET Target Engagement (TE) Assay
# Type: cell-based
# CONDITION SUMMARY: competitive tracer displacement in living cells, read-out: AKT1 E17K IC50
pIC50: −log10 of the molar value.
PARAMETER MEASURED: pIC50

COMPOUND	pIC50
C[C@@H]1CN(Cc2ccc(-n3c(-c4cccnc4N)nc4ccc(-c5ccccc5)nc43)cc2)CCN1c1nccc(C#N)n1	6.22 to 7.22
N#Cc1ccnc(OC2CCN(Cc3ccc(-n4c(-c5cccnc5N)nc5cccnc54)cc3)CC2)c1	5.00 to 6.22
N#Cc1cc(NC2CCN(Cc3ccc(-n4c(-c5cccnc5N)nc5ccc(-c6ccccc6)nc54)cc3)CC2)cnn1	7.22 to 7.82
N#Cc1ccc(OC2CCN(Cc3ccc(-n4c(-c5cccnc5N)nc5cc(-c6ccccc6)cnc54)cc3)CC2)nc1	5.00 to 6.22
N#Cc1ncnc(N2CC3(CCN(Cc4ccc(-n5c(-c6cccnc6N)nc6ccc(-c7ccccc7)nc65)cc4)C3)C2)n1	> 7.82

Next up:
(Q) Give recorded pIC50 with full length AKT E17K (Homo sapiens, UniProt P31749, E17K) for the following compound: N#Cc1nccc(N2CC3CCC2CN3Cc2ccc(-n3c(-c4cccnc4N)nc4ccc(-c5ccccc5)nc43)cc2)n1 (centres unmarked)
(A) > 7.82
